Numbers sourced from the supplement of paper PMC7877785.

// reported self-splicing fitness (ln) for each item listed
assay: self-splicing fitness, log relative to wild type (ln ratio); higher = more splicing; Tetrahymena group I intron in knt gene, E. coli kanamycin selection, DiMSum; sequences stand for … in CUCUCU…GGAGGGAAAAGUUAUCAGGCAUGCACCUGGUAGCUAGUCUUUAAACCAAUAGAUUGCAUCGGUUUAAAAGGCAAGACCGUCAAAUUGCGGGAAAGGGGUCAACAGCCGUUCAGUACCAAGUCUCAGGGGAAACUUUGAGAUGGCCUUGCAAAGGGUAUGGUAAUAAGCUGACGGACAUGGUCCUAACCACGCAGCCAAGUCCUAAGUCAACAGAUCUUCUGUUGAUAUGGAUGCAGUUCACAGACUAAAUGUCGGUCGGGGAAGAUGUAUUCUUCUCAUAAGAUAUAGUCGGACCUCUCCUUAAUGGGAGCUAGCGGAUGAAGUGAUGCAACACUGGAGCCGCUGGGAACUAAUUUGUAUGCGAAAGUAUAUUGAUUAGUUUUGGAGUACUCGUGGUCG; settings: 30 °C;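 note: selection with 25 µg/mL kanamycin versus none on LB agar overnight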
Provide a numeric answer; units are not to be included.

{"PRIMARY_SEQUENCE": "GGGAAGCAAUAUUACGAGUG", "self-splicing fitness (ln)": -3.06}
{"PRIMARY_SEQUENCE": "CGACAGCAAUAUUACGCCGG", "self-splicing fitness (ln)": -0.394}
{"PRIMARY_SEQUENCE": "GGCCAGCAAUAUUACGAGGU", "self-splicing fitness (ln)": -3.26}
{"PRIMARY_SEQUENCE": "GUUGAGCAAUAUUACGUCUA", "self-splicing fitness (ln)": -2.72}
{"PRIMARY_SEQUENCE": "ACAAAGCAAUAUUACGAGUA", "self-splicing fitness (ln)": -3.03}

Measured self-splicing fitness (ln) of GUUUAGCAAUAUUACGUAUU : -2.91

Measured self-splicing fitness (ln) of GGUCAGCAAUAUUACGUACG : 0.123

Measured self-splicing fitness (ln) of GAAAAGCAAUAUUACGCUAU : -2.9

Measured self-splicing fitness (ln) of GAGCAGCAAUAUUACGUGCG : -1.65

Measured self-splicing fitness (ln) of CCGCAGCAAUAUUACGAGUG : -0.193

Measured self-splicing fitness (ln) of AGGCAGCAAUAUUACGUGUG : -2.98

Measured self-splicing fitness (ln) of CAACAGCAAUAUUACGAUCA : -1.6

Measured self-splicing fitness (ln) of AAUUAGCAAUAUUACGCUGG : -1.35

Measured self-splicing fitness (ln) of GGGCAGCAAUAUUACGAACA : -0.951

Measured self-splicing fitness (ln) of CAAUAGCAAUAUUACGGUCC : -3.21

Measured self-splicing fitness (ln) of AGCGAGCAAUAUUACGCGCU : -1.6

Measured self-splicing fitness (ln) of GGAAAGCAAUAUUACGAAGG : -3.22

Measured self-splicing fitness (ln) of GGCCAGCAAUAUUACGAUAU : -1.67

* * *

assay: self-splicing fitness, log relative to wild type (ln ratio); higher = more splicing; Tetrahymena group I intron in knt gene, E. coli kanamycin selection, DiMSum; sequences stand for … in CUCUCU…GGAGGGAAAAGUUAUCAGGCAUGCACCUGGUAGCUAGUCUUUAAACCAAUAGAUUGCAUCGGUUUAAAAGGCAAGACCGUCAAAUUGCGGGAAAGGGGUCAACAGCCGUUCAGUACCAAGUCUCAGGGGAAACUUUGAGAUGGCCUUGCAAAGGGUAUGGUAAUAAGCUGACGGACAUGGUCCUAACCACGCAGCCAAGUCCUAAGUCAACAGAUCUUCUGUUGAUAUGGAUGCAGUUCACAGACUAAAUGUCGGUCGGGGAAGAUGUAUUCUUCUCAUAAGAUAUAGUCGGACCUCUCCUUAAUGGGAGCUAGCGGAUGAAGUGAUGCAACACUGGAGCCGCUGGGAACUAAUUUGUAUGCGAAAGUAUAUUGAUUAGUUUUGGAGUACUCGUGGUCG; conditions: 37 °C
Parameter threshold = -1. Response is Criterion met when self-splicing fitness (ln) meets or exceeds it, else Criterion not met.

{"PRIMARY_SEQUENCE": "UCUAAGCAAUAUUACGGGUU", "CAT": "Criterion not met"}
{"PRIMARY_SEQUENCE": "CCGAAGCAAUAUUACGUAAC", "CAT": "Criterion not met"}
{"PRIMARY_SEQUENCE": "CAGUAGCAAUAUUACGCAUA", "CAT": "Criterion not met"}

Please tell me: is the sequence AAGAAGCAAUAUUACGGCGA at or over -1 in terms of self-splicing fitness (ln)?
Criterion met

Please tell me: is the sequence UGCAAGCAAUAUUACGCGCC at or over -1 in terms of self-splicing fitness (ln)?
Criterion met

Please tell me: is the sequence CUCAAGCAAUAUUACGCCUC at or over -1 in terms of self-splicing fitness (ln)?
Criterion not met

Please tell me: is the sequence AUGAAGCAAUAUUACGAAAC at or over -1 in terms of self-splicing fitness (ln)?
Criterion met

Please tell me: is the sequence AUUCAGCAAUAUUACGUAGC at or over -1 in terms of self-splicing fitness (ln)?
Criterion not met

Please tell me: is the sequence CCCCAGCAAUAUUACGUGAA at or over -1 in terms of self-splicing fitness (ln)?
Criterion not met

Please tell me: is the sequence CAAAAGCAAUAUUACGUUGG at or over -1 in terms of self-splicing fitness (ln)?
Criterion not met

* * *

assay: self-splicing fitness, log relative to wild type (ln ratio); higher = more splicing; Tetrahymena group I intron in knt gene, E. coli kanamycin selection, DiMSum; sequences stand for … in CUCUCU…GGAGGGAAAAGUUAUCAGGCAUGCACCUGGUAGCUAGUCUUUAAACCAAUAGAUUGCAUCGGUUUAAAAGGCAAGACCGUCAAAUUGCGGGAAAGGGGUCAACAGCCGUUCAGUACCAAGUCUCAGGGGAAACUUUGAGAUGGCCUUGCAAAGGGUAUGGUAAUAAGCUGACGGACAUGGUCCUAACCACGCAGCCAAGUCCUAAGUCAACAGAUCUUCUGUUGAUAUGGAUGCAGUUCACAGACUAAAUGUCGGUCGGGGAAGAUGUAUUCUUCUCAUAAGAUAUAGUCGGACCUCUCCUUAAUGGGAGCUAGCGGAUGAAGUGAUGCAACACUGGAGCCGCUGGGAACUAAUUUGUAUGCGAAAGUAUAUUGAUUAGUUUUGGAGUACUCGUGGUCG; settings: 37 °C
// reported self-splicing fitness (ln) for each item listed
Provide a numeric answer; units are not to be included.

{"PRIMARY_SEQUENCE": "CCCUAGCAAUAUUACGUAUG", "self-splicing fitness (ln)": -3.63}

Shifting focus to the sequence that follows.
Measured self-splicing fitness (ln) of UCACAGCAAUAUUACGGGGU : -2.67

* * *

// reported self-splicing fitness (ln) for each item listed
assay: self-splicing fitness, log relative to wild type (ln ratio); higher = more splicing; Tetrahymena group I intron in knt gene, E. coli kanamycin selection, DiMSum; sequences stand for … in CUCUCU…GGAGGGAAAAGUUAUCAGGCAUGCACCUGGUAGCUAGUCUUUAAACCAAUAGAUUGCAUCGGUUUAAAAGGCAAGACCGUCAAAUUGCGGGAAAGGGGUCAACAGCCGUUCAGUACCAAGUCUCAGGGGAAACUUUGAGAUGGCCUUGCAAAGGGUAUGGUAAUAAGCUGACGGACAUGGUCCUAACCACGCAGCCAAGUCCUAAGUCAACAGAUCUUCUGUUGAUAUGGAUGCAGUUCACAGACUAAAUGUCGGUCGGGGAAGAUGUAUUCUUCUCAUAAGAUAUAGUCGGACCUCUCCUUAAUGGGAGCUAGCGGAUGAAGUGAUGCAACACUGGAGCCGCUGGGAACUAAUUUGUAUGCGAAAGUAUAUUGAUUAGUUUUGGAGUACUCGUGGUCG; conditions: 37 °C
Provide a numeric answer; units are not to be included.

{"PRIMARY_SEQUENCE": "CUAGAGCAAUAUUACGGGCG", "self-splicing fitness (ln)": 0.638}

Measured self-splicing fitness (ln) of UGCGAGCAAUAUUACGACCG : 0.112

Measured self-splicing fitness (ln) of GGAGAGCAAUAUUACGCGUG : -2.53

Measured self-splicing fitness (ln) of UUUUAGCAAUAUUACGCGCC : -0.726

Measured self-splicing fitness (ln) of GAGGAGCAAUAUUACGCCAC : -2.39

Measured self-splicing fitness (ln) of CUGUAGCAAUAUUACGACGC : -2.79

Measured self-splicing fitness (ln) of UGGUAGCAAUAUUACGAUCG : 0.623

* * *

// reported self-splicing fitness (ln) for each item listed
test: self-splicing fitness, log relative to wild type (ln ratio); higher = more splicing; Tetrahymena group I intron in knt gene, E. coli kanamycin selection, DiMSum; sequences stand for … in CUCUCU…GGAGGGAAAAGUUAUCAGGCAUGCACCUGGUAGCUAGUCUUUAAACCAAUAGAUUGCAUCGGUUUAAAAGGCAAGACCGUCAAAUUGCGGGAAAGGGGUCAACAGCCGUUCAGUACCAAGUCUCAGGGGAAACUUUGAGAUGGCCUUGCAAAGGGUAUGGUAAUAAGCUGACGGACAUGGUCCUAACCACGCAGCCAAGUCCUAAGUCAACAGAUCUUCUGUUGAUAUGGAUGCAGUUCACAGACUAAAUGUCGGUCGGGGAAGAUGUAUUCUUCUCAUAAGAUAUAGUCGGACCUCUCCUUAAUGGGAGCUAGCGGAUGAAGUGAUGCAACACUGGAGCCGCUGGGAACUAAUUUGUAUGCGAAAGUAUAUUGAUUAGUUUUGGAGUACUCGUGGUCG; conditions: 30 °C
Provide a numeric answer; units are not to be included.

Measured self-splicing fitness (ln) of CCUCAGCAAUAUUACGAGGG : -4.16

Measured self-splicing fitness (ln) of UCAGAGCAAUAUUACGUAAU : -2.52

Measured self-splicing fitness (ln) of GCGUAGCAAUAUUACGUCGA : -2.69

Measured self-splicing fitness (ln) of AACGAGCAAUAUUACGAGAA : -1.87

Measured self-splicing fitness (ln) of UCUCAGCAAUAUUACGCUAG : -2.76

Measured self-splicing fitness (ln) of AAAAAGCAAUAUUACGCUGC : -3.34
